- measuredOn: Escherichia coli LpxH (UDP-2,3-diacylglucosamine hydrolase) (Escherichia coli (strain K12))
- Sequence (P43341 whole entry): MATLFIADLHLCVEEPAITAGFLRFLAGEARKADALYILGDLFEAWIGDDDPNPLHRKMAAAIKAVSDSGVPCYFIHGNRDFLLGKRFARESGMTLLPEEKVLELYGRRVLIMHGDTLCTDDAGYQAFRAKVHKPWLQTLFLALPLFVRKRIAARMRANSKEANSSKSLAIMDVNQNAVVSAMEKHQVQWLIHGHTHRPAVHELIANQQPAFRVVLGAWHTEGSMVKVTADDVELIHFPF
- assayDetails: 50% Inhibitory Concentration (IC50) to LpxH, UMP/CMP-Glo Glycosyltransferase Assay kit
Catalogue of pIC50 values
Notebook: values listed as pIC50 are -log10 of the concentration (mol/L).

Past entries and their recorded results:
molecule	val
NC1CC(=O)N(c2ccc(S(=O)(=O)N3CCN(c4cc(C(F)F)cc(Cl)n4)CC3)cc2)C1 (stereo not shown)	6.59
O=C1CC(NC2CCNC2)CN1c1ccc(S(=O)(=O)N2CCN(c3cc(C(F)(F)F)cc(Cl)n3)CC2)cc1 (stereo not shown)	7.02
NC1CC(=O)N(c2ccc(S(=O)(=O)N3CCN(c4cc(S(=O)(=O)C5CC5)cc(Cl)n4)CC3)cc2)C1 (stereo not shown)	6.13
O=C1OC(CNC2CCNC2)CN1c1ccc(S(=O)(=O)N2CCN(c3cc(C(F)(F)F)cc(Cl)n3)CC2)cc1 (stereo not shown)	7.57
O=C1CC(NC2CCNCC2)CN1c1ccc(S(=O)(=O)N2CCN(c3cc(C(F)(F)F)cc(Cl)n3)CC2)cc1 (stereo not shown)	8.07
NC1CC(=O)N(c2ccc(S(=O)(=O)N3CCN(c4cc(S(=O)(=O)C5CCOCC5)cc(Cl)n4)CC3)cc2)C1 (stereo not shown)	7.32
NC1CC(=O)N(c2ccc(S(=O)(=O)N3CCN(c4cc(C(F)(F)c5ccccc5)cc(Cl)n4)CC3)cc2)C1 (stereo not shown)	7.49
NC1CC(=O)N(c2ccc(S(=O)(=O)N3CCN(c4cc(C(F)(F)c5cccnc5)cc(Cl)n4)CC3)cc2)C1 (stereo not shown)	7.91
O=C1OC2C(O)C(CO)OC2N1c1ccc(S(=O)(=O)N2CCN(c3cc(C(F)(F)F)cc(Cl)n3)CC2)cc1 (stereo not shown)	7.98
NC1CN(C2CC(=O)N(c3ccc(S(=O)(=O)N4CCN(c5cc(C(F)(F)F)cc(Cl)n5)CC4)cc3)C2)C1 (stereo not shown)	7.27

// moving on: another record for pIC50
INPUT: Can you share its pIC50? I mean this molecule: O=C1CC(N2CCN[C@@H](CO)C2)CN1c1ccc(S(=O)(=O)N2CCN(c3cc(C(F)(F)F)cc(Cl)n3)CC2)cc1 (stereo partly shown)
OUTPUT: 7.70
